assay-target: NET (Homo sapiens)
procedure-summary: hNET radioligand binding assay (3H-nisoxetine)
Set-up: expressed in transfected cells; host or cells: HEK-293
condition: hNET membranes (HEK-293), 1.0 nM 3H-nisoxetine; read-out: NET pKi (converted)
measured-endpoint: Ki

Record excerpt, results attached:
INSERT INTO assay_data (compound, assay_target, observed_result) VALUES
  ('COc1ccc(O[C@@H](c2ccccc2)C2CCNC2)cn1 (stereo partly shown)', 'NET (Homo sapiens)', '≤ 10 µM'),
  ('Fc1cccc(C(Oc2cccc3ccccc23)C2CCNC2)c1 (stereo not shown)', 'NET (Homo sapiens)', '≤ 0.1 µM');

get_value(item= `Fc1cc(F)c(O[C@@H](c2cncc(Cl)c2)[C@H]2CCNC2)c(F)c1` , readout=Ki) returns ≤ 0.1 µM

get_value(item= Fc1ccc(OC(c2ccncc2)[C@H]2CCNC2)c(F)c1 (stereo partly shown) , readout=Ki) returns ≤ 10 µM

get_value(item= Fc1cc(Cl)c(OC(c2nccs2)C2CCNC2)c(Cl)c1 (stereo not shown) , readout=Ki) returns ≤ 10 µM

get_value(item= Clc1cccc(C(Oc2cccc3ccccc23)C2CCNC2)c1 (stereo not shown) , readout=Ki) returns ≤ 0.1 µM

get_value(item= COc1ccc2ccccc2c1OC(c1ccccc1)C1CCNC1 (stereo not shown) , readout=Ki) returns ≤ 0.1 µM

get_value(item= `Fc1cc(F)c(O[C@@H](c2cccnc2)[C@H]2CCNC2)c(F)c1` , readout=Ki) returns ≤ 10 µM

get_value(item= Cc1ccc(F)c(OC(c2nccs2)C2CCNC2)c1Cl (stereo not shown) , readout=Ki) returns ≤ 0.1 µM

get_value(item= Fc1cc(F)c(F)c(OC(c2nccs2)C2CCNC2)c1F (stereo not shown) , readout=Ki) returns ≤ 0.1 µM

* * *

assay-target: SERT (Homo sapiens, UniProt P31645)
Sequence (P31645 whole entry): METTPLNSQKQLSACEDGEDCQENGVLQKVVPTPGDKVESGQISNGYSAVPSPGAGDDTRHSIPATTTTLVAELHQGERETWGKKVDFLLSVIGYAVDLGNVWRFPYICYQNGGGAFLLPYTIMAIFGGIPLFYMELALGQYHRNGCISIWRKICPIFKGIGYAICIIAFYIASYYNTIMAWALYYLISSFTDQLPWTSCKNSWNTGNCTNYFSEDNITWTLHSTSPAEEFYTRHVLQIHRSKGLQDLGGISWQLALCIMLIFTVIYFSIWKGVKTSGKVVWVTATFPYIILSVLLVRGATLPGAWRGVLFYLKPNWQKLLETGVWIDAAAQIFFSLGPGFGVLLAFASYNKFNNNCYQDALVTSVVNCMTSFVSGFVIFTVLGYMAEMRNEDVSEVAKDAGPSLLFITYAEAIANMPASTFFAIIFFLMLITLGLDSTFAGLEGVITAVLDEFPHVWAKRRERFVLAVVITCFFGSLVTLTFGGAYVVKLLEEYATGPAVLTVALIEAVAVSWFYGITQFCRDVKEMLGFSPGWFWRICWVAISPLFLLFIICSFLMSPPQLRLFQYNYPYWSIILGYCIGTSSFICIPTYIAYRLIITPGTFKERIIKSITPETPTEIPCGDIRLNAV
procedure-summary: hSERT radioligand binding assay (3H-citalopram)
Design: expressed in transfected cells; host or cells: HEK-293
condition: hSERT membranes (HEK-293), 1.0 nM 3H-citalopram
measured-endpoint: SERT pKi

INSERT INTO results (compound, observed_result) VALUES
  ('Cc1ncccc1O[C@@H](c1ccccc1)[C@H]1CCNC1.O=C(O)C(F)(F)F', '≧5.0'),
  ('Clc1cc(-c2ccccc2)ccc1O[C@@H](c1ncco1)[C@H]1CCNC1.O=C(O)C(F)(F)F', '≧5.0'),
  ('Cc1cnc(O[C@@H](c2ccccc2)[C@H]2CCNC2)c(Br)c1.O=C(O)C(F)(F)F', '≧7.0'),
  ('Fc1cc(Cl)cc(F)c1OC(c1ncco1)C1CCNC1 (stereo not shown)', '≧7.0');

* * *

assay-target: UniProt P23975
procedure-summary: hNET radioligand binding assay (3H-nisoxetine)
Set-up: expressed in transfected cells; host or cells: HEK-293
condition: hNET membranes (HEK-293), 1.0 nM 3H-nisoxetine; read-out: NET pKi (converted)
Quick reference for Ki among some molecules

Record excerpt, results attached:
INSERT INTO results (molecule, measured_endpoint, observed_result) VALUES
  ('c1ccc(C(Oc2cccc3ccccc23)C2CCNC2)cc1 (centres unmarked) [21-1]', 'Ki', '≤ 0.1 µM'),
  ('FC(F)(F)Oc1cccc(C(Oc2cccc3ccccc23)C2CCNC2)c1 (centres unmarked) [21-7]', 'Ki', '≤ 10 µM');

Observed Ki, UniProt P23975, Fc1cncc([C@@H](Oc2c(Cl)c(F)cc(F)c2Cl)[C@H]2CCNC2)c1 [Example 2-42] : ≤ 10 µM

Observed Ki, UniProt P23975, Cc1cc(Cl)ccc1O[C@@H](c1ccco1)[C@H]1CCNC1 [Example 8-2] : ≤ 10 µM

Observed Ki, UniProt P23975, Fc1cc(Cl)cc(F)c1OC(c1cncc(Cl)c1)C1CCNC1 (centres unmarked) [Example 2-25] : ≤ 0.1 µM

* * *

assay-target: NET (Homo sapiens)
procedure-summary: hNET radioligand binding assay (3H-nisoxetine)
Set-up: expressed in transfected cells; host or cells: HEK-293
condition: hNET membranes (HEK-293), 1.0 nM 3H-nisoxetine; read-out: NET pKi (converted)
Quick reference for Ki among some compounds

Record excerpt, results attached:
INSERT INTO measurements (compound, observed_result) VALUES
  ('COc1ccccc1O[C@H](c1cnccn1)[C@H]1CCNC1 [10-8]', '≤ 10 µM'),
  ('Cc1ccccc1O[C@@H](c1ncco1)[C@H]1CCNC1 [6-33]', '≤ 0.1 µM'),
  ('Fc1cc(F)c(Cl)c(OC(c2nccs2)C2CCNC2)c1Cl (centres unmarked) [Example 5-9]', '≤ 0.1 µM'),
  ('Clc1cc(Cl)cc(O[C@H](c2cnccn2)[C@H]2CCNC2)c1 [10-10]', '≤ 10 µM');

Below: the item to evaluate.
get_value(item= Cc1cc(Cl)cc(Cl)c1OC(c1cncc(Cl)c1)C1CCNC1 (centres unmarked) [Example 2-30] , readout=Ki) returns ≤ 10 µM

* * *

assay-target: NET (Homo sapiens, UniProt P23975)
Sequence (P23975 whole entry): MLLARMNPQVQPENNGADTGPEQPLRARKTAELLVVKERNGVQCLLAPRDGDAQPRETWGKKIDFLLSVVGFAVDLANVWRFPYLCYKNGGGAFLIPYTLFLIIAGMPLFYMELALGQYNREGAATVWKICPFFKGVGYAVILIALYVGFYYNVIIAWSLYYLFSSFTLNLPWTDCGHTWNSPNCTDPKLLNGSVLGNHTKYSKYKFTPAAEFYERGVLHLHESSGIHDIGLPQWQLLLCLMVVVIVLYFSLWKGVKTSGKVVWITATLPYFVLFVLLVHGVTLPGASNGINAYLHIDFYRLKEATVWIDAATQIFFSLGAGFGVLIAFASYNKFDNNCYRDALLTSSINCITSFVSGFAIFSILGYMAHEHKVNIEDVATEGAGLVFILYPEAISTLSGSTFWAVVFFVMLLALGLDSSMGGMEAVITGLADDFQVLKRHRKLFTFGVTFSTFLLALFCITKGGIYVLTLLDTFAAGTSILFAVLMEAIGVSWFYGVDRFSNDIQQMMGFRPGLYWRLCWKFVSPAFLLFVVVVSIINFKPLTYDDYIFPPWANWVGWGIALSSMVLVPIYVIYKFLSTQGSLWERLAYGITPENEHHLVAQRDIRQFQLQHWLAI
procedure-summary: hNET radioligand binding assay (3H-nisoxetine)
Design: expressed in transfected cells; host or cells: HEK-293
condition: hNET membranes (HEK-293), 1.0 nM 3H-nisoxetine
measured-endpoint: NET pKi

Record excerpt, results attached:
INSERT INTO measurements (compound, assay_target, observed_result) VALUES
  ('Clc1ccccc1O[C@@H](c1ncco1)[C@H]1CCNC1', 'NET (Homo sapiens, UniProt P23975)', '≧7.0'),
  ('CCc1cc(F)ccc1O[C@H](c1cncc(F)c1)[C@@H]1CCNC1', 'NET (Homo sapiens, UniProt P23975)', '≧7.0'),
  ('Clc1cc(O[C@@H](c2ccccc2)[C@H]2CCNC2)cc(Cl)n1.O=C(O)C(F)(F)F', 'NET (Homo sapiens, UniProt P23975)', '≧5.0'),
  ('Clc1cccc(O[C@@H](c2ncco2)[C@H]2CCNC2)c1.O=C(O)C(F)(F)F', 'NET (Homo sapiens, UniProt P23975)', '≧7.0');

get_value(item= `COc1cc(F)c(O[C@@H](c2nccs2)[C@H]2CCNC2)c(F)c1` , readout=NET pKi) returns ≧5.0

get_value(item= `FC(F)(F)c1cccnc1O[C@@H](c1ccccc1)[C@H]1CCNC1.O=C(O)C(F)(F)F` , readout=NET pKi) returns ≧5.0

get_value(item= `Fc1ccc(O[C@@H](c2ncco2)[C@H]2CCNC2)c(Cl)c1.O=C(O)C(F)(F)F` , readout=NET pKi) returns ≧7.0

get_value(item= Cc1ccc(F)c(O[C@H](c2nccs2)C2CCNC2)c1Cl (stereo partly drawn) , readout=NET pKi) returns ≧7.0

get_value(item= `Cc1ncccc1O[C@@H](c1ccccc1)[C@H]1CCNC1.O=C(O)C(F)(F)F` , readout=NET pKi) returns ≧5.0

* * *

Quick reference for Ki among some molecules
assay-target: SERT (Homo sapiens, UniProt P31645)
procedure-summary: hSERT radioligand binding assay (3H-citalopram)
Parameters: expressed in transfected cells; host or cells: HEK-293
condition: hSERT membranes (HEK-293), 1.0 nM 3H-citalopram; read-out: SERT pKi (converted)
Source text: Membrane radioligand binding assays were used to measure inhibition of labeled ligand (^3H-citalopram or ^3H-nisoxetine or ^3H-WIN35428) binding to membranes prepared from cells expressing the respective human recombinant transporter (hSERT or hNET or hDAT) in order to determine the pKi values of test compounds at the transporters. […]

Record excerpt, results attached:
INSERT INTO measurements (molecule, observed_result) VALUES
  ('COc1ccccc1OC(c1cccnc1)[C@H]1CCNC1 (stereo partly shown)', '≤ 10000 nM'),
  ('Clc1cc(Cl)cc(OC(c2nccs2)C2CCNC2)c1 (stereo not shown)', '≤ 100 nM'),
  ('FC(F)(F)c1ccccc1O[C@@H](c1ncco1)[C@H]1CCNC1', '≤ 10000 nM'),
  ('Clc1ccc(O[C@@H](c2ccccc2)C2CCNC2)c(Cl)n1 (stereo partly shown)', '≤ 100 nM'),
  ('Cc1cc(Cl)cc(C)c1OC(c1cncc(F)c1)C1CCNC1 (stereo not shown)', '≤ 100 nM'),
  ('Cc1cc(Cl)cnc1O[C@@H](c1ccccc1)[C@H]1CCNC1', '≤ 100 nM'),
  ('Fc1ccc(F)c(OC(c2nccs2)C2CCNC2)c1Cl (stereo not shown)', '≤ 100 nM'),
  ('Fc1cc(F)c(OC(c2nccs2)C2CCNC2)c(F)c1 (stereo not shown) [Example 5-7]', '≤ 100 nM'),
  ('Fc1cc(F)c(Cl)c(O[C@H](c2cncc(Cl)c2)[C@H]2CCNC2)c1Cl', '≤ 100 nM');

get_value(item= `Fc1ccc(O[C@H](c2cccnc2)[C@H]2CCNC2)c(F)c1` , readout=Ki) returns ≤ 100 nM

* * *

assay-target: NET (Homo sapiens, UniProt P23975)
procedure-summary: hNET radioligand binding assay (3H-nisoxetine)
Set-up: expressed in transfected cells; host or cells: HEK-293
condition: hNET membranes (HEK-293), 1.0 nM 3H-nisoxetine
measured-endpoint: NET pKi

INSERT INTO measurements (molecule, observed_result) VALUES
  ('CCc1cc(F)cc(F)c1O[C@H](c1cncc(F)c1)[C@@H]1CCNC1 [Example 2-57]', '≧7.0'),
  ('Fc1ncccc1O[C@@H](c1ccccc1)[C@H]1CCNC1.O=C(O)C(F)(F)F [15-8]', '≧7.0'),
  ('Cc1cc(Cl)c(O[C@H](c2cncc(Cl)c2)[C@@H]2CCNC2)c(Cl)c1 [Example 2-28]', '≧7.0'),
  ('COc1ccc(O[C@@H](c2ccccc2)[C@H]2CCNC2)cn1.O=C(O)C(F)(F)F [15-31]', '≧5.0'),
  ('Fc1ccc(O[C@H](c2nccs2)[C@H]2CCNC2)cc1Cl [Example 5-31]', '≧7.0');

Below: the item to evaluate.
get_value(item= Fc1ccc(O[C@@H](c2ccccc2)[C@H]2CCNC2)cn1.O=C(O)C(F)(F)F [15-27] , readout=NET pKi) returns ≧5.0
